Measured IC50 values are reported for all entries that follow.
system: Hepatitis C virus; assay: Antiviral activity against HCV infected in human Huh7 cells assessed as inhibition of viral replication after 48 hrs by NS5A staining; conditions: Huh-7, 48 h

{"Compound": "COC(=O)C1=COC(O)[C@H]2[C@@H]1[C@H](O)[C@H](O)C2(C)O (mixture of isomers)", "IC50": "15 µg/mL"}
{"Compound": "O=C(/C=C/c1ccc(O)cc1)OCC1=C[C@@H](O)[C@@H]2C=CO[C@@H](O[C@@H]3O[C@H](CO)[C@@H](O)[C@H](O)[C@H]3O)[C@H]12 [EUROSTOSIDE]", "IC50": "20 µg/mL"}

Attention now turns to another entry.
// field: IC50; key: C[C@@H]1[C@H]2[C@H](O[C@@H]3O[C@H](CO)[C@@H](O)[C@H](O)[C@H]3O)OC=C(C(=O)O)[C@H]2C[C@@H]1O ; value = 11 µg/mL

Where these numbers come from: ChEMBL document CHEMBL1153732
